Quick reference: normalized growth of the listed items.
PROCEDURE SUMMARY: chemical genetic growth profiling, strain panel (AID 1159580);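 further: tested at 20 µM; growth read once vehicle control cultures reached saturation at 30 °C; 1 = growth at the plate median or of vehicle wells; lower values mean less growth of the strain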
ASSAY CONDITIONS: S. cerevisiae deletion strains, growth OD, locus YGR229C, strain SMI1, stronger effect = lower value
Hit rate of the full screen: of about 5,500 compounds, about 2,000 (36%) were called active. Inconclusive results (about 18%) are left out. The list shows a part of the results.
Respond numerically, and do not add a unit to the figure.

Worked examples follow.
MOLECULE: CCC(C)(C)C(=O)O[C@H]1C[C@@H](C)C=C2C=C[C@H](C)[C@H](CC[C@@H]3C[C@@H](O)CC(=O)O3)[C@H]21
ASSAY VALUE: 0.783
--
MOLECULE: Cc1onc(-c2ccccc2)c1NC(=O)Nc1c(Cl)cccc1Cl
ASSAY VALUE: 0.996
--
MOLECULE: O=C(O)c1cc2cc(Cc3cccnc3)ccc2o1
ASSAY VALUE: 1.05
--
MOLECULE: CCN(CC)C(=O)c1cccc(C)c1
ASSAY VALUE: 1.01
--
MOLECULE: CCCCOC(=O)c1ccccc1C(=O)OCCCC
ASSAY VALUE: 0.948

What measured normalized growth goes with CC(C)C(C)/C=C/C(C)C1CCC2C3=CC=C4CC(O)CCC4(C)C3CCC21C (configuration not stated) ?
0.831

What measured normalized growth goes with C=C1CCC2C(CC2(C)C)C(=C)CC/C1=N\O (configuration not stated) ?
0.738

###

Quick reference: normalized growth of the listed items.
PROCEDURE SUMMARY: chemical genetic growth profiling, strain panel (AID 1159580);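 further: tested at 20 µM; growth read once vehicle control cultures reached saturation at 30 °C; 1 = growth at the plate median or of vehicle wells; lower values mean less growth of the strain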
ASSAY CONDITIONS: S. cerevisiae deletion strains, growth OD, locus YPL078C, strain atp4, stronger effect = lower value
The campaign covered roughly 5,500 compounds. About 2,000 (36%) were called active. Inconclusive results (about 18%) are left out. Some of the results follow.
Respond numerically, and do not add a unit to the figure.

Worked examples follow.
COMPOUND: C[N+]1(C)C2CC(OC(=O)[C@@H](CO)c3ccccc3)CC1C1OC12 (stereo partly drawn)
QUANTITY NAME: normalized growth
ASSAY VALUE: 0.956
--
COMPOUND: Cc1ccc(C)c(OCCCC(C)(C)C(=O)O)c1
QUANTITY NAME: normalized growth
ASSAY VALUE: 0.975

With those in mind, consider the next compound.
What measured normalized growth goes with O=C1[C@H](CCC(O)c2ccc(F)cc2)[C@@H](c2ccc(O)cc2)N1c1ccc(F)cc1 (stereo partly drawn) ?
0.908

###

PROCEDURE SUMMARY: chemical genetic growth profiling, strain panel (AID 1159580);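 further: tested at 20 µM; growth read once vehicle control cultures reached saturation at 30 °C; 1 = growth at the plate median or of vehicle wells; lower values mean less growth of the strain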
ASSAY CONDITIONS: S. cerevisiae deletion strains, growth OD, locus YGL253W, strain hxk2
In all, about 5,500 compounds went through this assay and about 2,000 (36%) were called active. About 18% were inconclusive and are not listed. Rule as the data show it: active = normalized growth mostly below about 0.91 (no sharp cut-off); inconclusive = no clear call, values can overlap the other calls; inactive = mostly above about 0.92. The list shows a part of the results.
In this exercise, the only acceptable responses are active, inactive

Answered cases to consult:
COMPOUND: COC(=O)C(C)c1ccc(C(=O)c2cccs2)cc1 (configuration not stated)
GROUP: inactive

COMPOUND: CN1C(C(=O)Nc2ccccn2)=C(O)c2ccccc2S1(=O)=O
GROUP: inactive

COMPOUND: C=C1C(=O)O[C@@H]2C[C@@]3(C)CCC[C@H](C)C3=C[C@H]12
GROUP: active

Query: recorded result category for CC(C(=O)O)c1ccc(C(=O)c2cccs2)cc1 (configuration not stated) in this test
inactive

Query: recorded result category for COC(=O)C(O)c1ccccc1 (configuration not stated) in this test
inactive

Query: recorded result category for C[C@@H]1C(=O)OC2[C@H](O)C34[C@@H]5OC(=O)[C@@]3(O[C@@H]3OC(=O)[C@H](O)[C@@]34[C@H](C(C)(C)C)[C@H]5O)[C@]21O (some centres not stated) in this test
inactive

Query: recorded result category for `C[C@H]1CC[C@@H](C(C)(C)O)CC2=C1CC[C@@H]2C` in this test
inactive

From: PubChem BioAssay AID1159580
